# tested-system: human von Willebrand factor, FVIII-free, plasma derived (human)
# procedure-text: SPR (BIAcore), hvWf as ligand, FVIII protein as analyte, N=5

{"substance": "rFVIIIFc (recombinant B-domain deleted human FVIII-Fc monomer hybrid), drug substance (from UniProt P00451 20-1667; P0DOX5 223-449) (Fc fusion)", "tested-system": "human von Willebrand factor, FVIII-free, plasma derived (human)", "Kd, nM": 1.64}

Where these numbers come from: patent US20140294821A1
